Reference source for all entries: the supplement of paper PMC11908140

B1: library; numbered along this chain (parent)
chain: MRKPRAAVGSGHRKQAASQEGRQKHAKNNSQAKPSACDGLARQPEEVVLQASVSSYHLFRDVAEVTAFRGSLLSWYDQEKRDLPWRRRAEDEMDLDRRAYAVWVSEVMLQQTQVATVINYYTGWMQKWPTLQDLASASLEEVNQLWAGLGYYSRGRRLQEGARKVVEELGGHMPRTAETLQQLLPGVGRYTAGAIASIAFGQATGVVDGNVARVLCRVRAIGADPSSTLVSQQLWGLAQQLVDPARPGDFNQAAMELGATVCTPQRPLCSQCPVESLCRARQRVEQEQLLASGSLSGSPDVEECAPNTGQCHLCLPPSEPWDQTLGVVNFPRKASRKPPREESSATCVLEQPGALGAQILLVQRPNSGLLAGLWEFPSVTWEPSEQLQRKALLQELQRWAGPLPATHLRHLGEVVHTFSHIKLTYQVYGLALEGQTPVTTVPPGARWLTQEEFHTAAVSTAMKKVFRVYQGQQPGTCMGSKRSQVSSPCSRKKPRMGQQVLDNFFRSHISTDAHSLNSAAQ

- Variants of: B1
- test method notes: 8OG:A repair function score (normalized; synonymous = 0, nonsense = -1) (normalized log-likelihood score); higher = more repair activity (WT-like);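 note: cells sorted at 72 h after reporter transfection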
- conditions used: with 8OG:A DNA repair reporter (GFP) in HEK-293 MUTYH KO cells
Classification by 8OG:A repair function score follows these ranges: lowest (below -0.2), middle (-0.2 to below -0.006), highest (-0.006 or more)

{"columns": ["mutations", "label value"],
 "data": [
  ["A245W", "middle"]
]}

Ask: Input `R88Q` ; output its category
Result: middle

Ask: Input `T260P` ; output its category
Result: lowest

Ask: Input `F466W` ; output its category
Result: middle

Ask: Input `G356I` ; output its category
Result: lowest
